These data points were gathered from the kinase profiling compilation of Christmann-Franck et al. (2016).

# residual activity annotations
# Study System: UniProt Q9UEW8
# Assay Notes: radiometric filter-binding kinase assay, Kinase HotSpot
# Experimental Context: compound 0.5 µM; ATP 10 µM
Write down the value, and be sure its unit follows.

Solved entries (count: 2):
{"Molecule": "Oc1ccc(-c2nc(-c3ccc(F)cc3)c(-c3ccncc3)[nH]2)cc1", "Study System": "UniProt Q9UEW8", "Result": "94.8%"}
{"Molecule": "CCCNC(=O)Nc1ccc(Oc2ncnc3cc(OC)c(OC)cc23)cc1Cl", "Study System": "UniProt Q9UEW8", "Result": "88%"}

Considering "O=c1cc(-c2cccc3c2Sc2ccccc2S3)oc(N2CCOCC2)c1" , its residual activity with UniProt Q9UEW8 was recorded as 84%

Case "Nc1nc(Nc2ccc(S(N)(=O)=O)cc2)nn1C(=O)c1c(F)cccc1F" , UniProt Q9UEW8, residual activity recorded as 89.5%

# value of residual activity, UniProt Q9UEW8, item "CCN1/C(=C/C(C)=O)Sc2ccc(OC)cc21" = 95.9%

residual activity value, target or system UniProt Q9UEW8, for "CC(C)(C)c1nc2c3ccc(F)cc3c3c(=O)[nH]ccc3c2[nH]1" : 93.8%

Record "Nc1nc(Nc2ccc(S(N)(=O)=O)cc2)nn1C(=S)Nc1c(F)cccc1F" / UniProt Q9UEW8, residual activity recorded as 76.5%

Log: UniProt Q9UEW8, molecule "CC(C)n1cnc2c(Nc3cccc(Cl)c3)nc(NCCO)nc21" , residual activity = 100%

Sample "NC(=O)c1ccc(N(C(N)=O)c2c(F)cccc2F)nc1-c1ccc(F)cc1F" , system: UniProt Q9UEW8. Its residual activity is 93.7%

Reported residual activity (UniProt Q9UEW8) for entry "C#Cc1cccc(Nc2ncnc3cc(OCCOC)c(OCCOC)cc23)c1" is 97%

Summary: CS(=O)c1ccc(-c2nc(-c3ccc(F)cc3)c(-c3ccncc3)[nH]2)cc1 (configuration not stated) , UniProt Q9UEW8, residual activity = 93.9%

Simply: "CC(C)[C@H](CO)Nc1nc(Nc2cccc(Cl)c2)c2ncn(C(C)C)c2n1" , UniProt Q9UEW8, residual activity = 99.2%

residual activity value, target or system UniProt Q9UEW8, for "Nc1n[nH]c2nnc(-c3c(-c4ccccc4)nn4ccccc34)cc12" : 89.1%

The molecule "Cc1ccc(NC(=O)c2ccc(CN3CCN(C)CC3)cc2)cc1Nc1nc(-c2cccnc2)cs1" on UniProt Q9UEW8: residual activity was 94%

Record for "COc1cc2ncnc(Nc3ccc(F)c(Cl)c3)c2cc1OCCCN1CCOCC1" under target or system UniProt Q9UEW8: residual activity reported as 93.5%

Record "Clc1ccc(Nc2nnc(Cc3ccncc3)c3ccccc23)cc1" / UniProt Q9UEW8, residual activity recorded as 92.6%

Record for "O=C1Cc2c([nH]c3ccc([N+](=O)[O-])cc23)-c2ccccc2N1" under target or system UniProt Q9UEW8: residual activity reported as 77.5%

* * *

# Study System: UniProtKB Q96GD4
# Sequence (Q96GD4 whole entry, looked up): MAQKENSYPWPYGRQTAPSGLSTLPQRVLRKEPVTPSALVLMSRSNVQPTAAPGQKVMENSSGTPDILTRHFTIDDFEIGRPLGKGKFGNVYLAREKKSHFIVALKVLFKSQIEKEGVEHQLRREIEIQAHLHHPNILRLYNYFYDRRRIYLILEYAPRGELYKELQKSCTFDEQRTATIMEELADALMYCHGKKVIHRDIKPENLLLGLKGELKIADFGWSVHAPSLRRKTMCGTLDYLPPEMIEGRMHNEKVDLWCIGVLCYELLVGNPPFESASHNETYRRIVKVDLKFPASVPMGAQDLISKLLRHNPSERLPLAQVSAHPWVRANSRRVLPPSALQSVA
# Assay Notes: radiometric filter-binding kinase assay, Kinase HotSpot
# Experimental Context: compound 0.5 µM; ATP 10 µM
Value Kind: residual activity

{"Compound": "CCN1/C(=C/C(C)=O)Sc2ccc(OC)cc21", "Study System": "UniProtKB Q96GD4", "residual activity": "87.9%"}
{"Compound": "CC(C)(C)c1nc2c3ccc(F)cc3c3c(=O)[nH]ccc3c2[nH]1", "Study System": "UniProtKB Q96GD4", "residual activity": "11.2%"}
{"Compound": "CC(C)[C@H](CO)Nc1nc(Nc2cccc(Cl)c2)c2ncn(C(C)C)c2n1", "Study System": "UniProtKB Q96GD4", "residual activity": "97%"}
{"Compound": "NC(=O)c1ccc(N(C(N)=O)c2c(F)cccc2F)nc1-c1ccc(F)cc1F", "Study System": "UniProtKB Q96GD4", "residual activity": "91.3%"}
{"Compound": "O=C1Nc2cc(Br)ccc2/C1=C1/Nc2ccccc2/C1=N\\O", "Study System": "UniProtKB Q96GD4", "residual activity": "39.1%"}
{"Compound": "O=C1Nc2ccccc2/C1=C\\c1c(Cl)[nH]c2ccccc12", "Study System": "UniProtKB Q96GD4", "residual activity": "97.9%"}
{"Compound": "CCCNC(=O)Nc1ccc(Oc2ncnc3cc(OC)c(OC)cc23)cc1Cl", "Study System": "UniProtKB Q96GD4", "residual activity": "37%"}
{"Compound": "Cc1cc2ncc(-c3ccccc3)nc2cc1C", "Study System": "UniProtKB Q96GD4", "residual activity": "85.4%"}

Let me check: "Oc1ccc(-c2nc(-c3ccc(F)cc3)c(-c3ccncc3)[nH]2)cc1" , system UniProtKB Q96GD4, measured residual activity is 104%

Per the reported UniProtKB Q96GD4 data, "COc1cc2ncnc(Nc3ccc(F)c(Cl)c3)c2cc1OCCCN1CCOCC1" has residual activity of 106%

UniProtKB Q96GD4 residual activity of "O=C(Nc1ccc(Cl)cc1)c1ccccc1NCc1ccncc1" is 77.7%

The reported UniProtKB Q96GD4 residual activity of "COc1ccc(-c2cnc3c(-c4ccsc4)cnn3c2)cc1" is 50.8%

For the compound "O=c1cc(-c2cccc3c2Sc2ccccc2S3)oc(N2CCOCC2)c1" , the measured residual activity on UniProtKB Q96GD4 was 95.8%

Tested on UniProtKB Q96GD4, the item O=C(NC(NC(=S)Nc1ccc(F)c([N+](=O)[O-])c1)C(Cl)(Cl)Cl)C(c1ccccc1)c1ccccc1 (stereo not drawn) showed residual activity equal to 95.3%
